The measurements presented in this section are drawn from paper PMC8119466.

system_name: recombinant PRL-3 (Homo sapiens)
Construct: 6xHis (N, cleaved yes); made in house; host or cells: E. coli One Shot BL21 Star
Sequence (O75365 whole entry): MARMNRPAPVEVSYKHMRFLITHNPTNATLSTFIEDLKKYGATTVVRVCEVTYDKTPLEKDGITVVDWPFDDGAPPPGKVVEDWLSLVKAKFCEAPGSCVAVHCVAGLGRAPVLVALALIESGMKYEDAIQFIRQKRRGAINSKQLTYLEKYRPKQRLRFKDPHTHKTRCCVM
assay_text: In vitro phosphatase assay (DiFMUP hydrolysis), PRL-3; note: test concentration or dose not given here
Type: biochemical
measurement_parameters: FDA-approved drug screen; compared to DMSO
Counter-ions that a name gives are not always drawn.
Listing of recorded % Phosphatase Activity (compared to DMSO) PRL-3 by entry.
readout_type: % Phosphatase Activity (compared to DMSO) PRL-3 (%)

{"columns": ["molecule", "experimental_result"],
 "data": [
  ["CCCCOc1ccc(C(=O)CCN2CCCCC2)cc1 [Dyclonine HCl]", 102],
  ["COc1cc(C(=O)O)ccc1NC(=O)[C@@H]1N[C@@H](CC(C)(C)C)[C@](C#N)(c2ccc(Cl)cc2F)[C@H]1c1cccc(Cl)c1F [Idasanutlin (RG-7388)]", 2],
  ["NC(=O)OCC(COC(N)=O)c1ccccc1 [Felbamate]", 71],
  ["Cc1cn(-c2cc(NC(=O)c3ccc(C)c(Nc4nccc(-c5cccnc5)n4)c3)cc(C(F)(F)F)c2)cn1 [Nilotinib (AMN-107)]", 76],
  ["O=C(O)c1cc(=O)[nH]c(=O)[nH]1.O=C(O)c1cc(=O)[nH]c(=O)[nH]1 [Orotic acid (6-Carboxyuracil)]", 95],
  ["O=C(CCCN1CC=C(n2c(=O)[nH]c3ccccc32)CC1)c1ccc(F)cc1 [Droperidol]", 71],
  ["O=C(Nc1cccc2c(=O)cc(-c3nnn[nH]3)oc12)c1ccc(OCCCCc2ccccc2)cc1 [Pranlukast]", 54],
  ["C[N+]1(C)CCC(OC(=O)C(O)(c2ccccc2)C2CCCC2)C1 (centres unmarked) [Glycopyrrolate]", 82]
]}
